Target: Cy5-labeled Taspase 1 loop (Homo sapiens)
Construct: Cy5-labeled NLS-bearing loop peptide (aa S181-D233); purchased GeneCust; host or cells: synthetic peptide
Sequence (Q9H6P5 181-233): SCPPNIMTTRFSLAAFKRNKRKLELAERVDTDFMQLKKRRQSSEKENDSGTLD
Experiment: Fluorescence titration of Cy5-labeled Taspase 1 loop
Format: binding
Conditions: Z isomer; 1:1 binding model; n = 3; read-out: KD TW (fluorescence titration, loop)

Compound	Reading unit	Kd
Cc1nn(-c2ccc(-n3cc(CCOP(=O)(O)Oc4c5c(c(OP(=O)(O)O)c6c4C4CC6c6cc7c(cc64)C4CC7c6ccccc64)C4CC5c5cc6c(cc54)C4CC6c5ccccc54)nn3)cc2)c(C)c1N=Nc1ccc(-n2cc(CCOP(=O)(O)Oc3c4c(c(OP(=O)(O)O)c5c3C3CC5c5cc6c(cc53)C3CC6c5ccccc53)C3CC4c4cc5c(cc43)C3CC5c4ccccc43)nn2)cc1 [TWAAP0]	nM	300
Cc1nn(-c2ccc(-c3cn(CCOP(=O)(O)Oc4c5c(c(OP(=O)(O)O)c6c4C4CC6c6cc7c(cc64)C4CC7c6ccccc64)C4CC5c5cc6c(cc54)C4CC6c5ccccc54)nn3)cc2)c(C)c1N=Nc1ccc(-c2ccc(-c3cn(CCOP(=O)(O)Oc4c5c(c(OP(=O)(O)O)c6c4C4CC6c6cc7c(cc64)C4CC7c6ccccc64)C4CC5c5cc6c(cc54)C4CC6c5ccccc54)nn3)cc2)cc1 [TWAAP3]	nM	600
Cc1nn(-c2ccc(C#Cc3ccc(-c4cn(CCOP(=O)(O)Oc5c6c(c(OP(=O)(O)O)c7c5C5CC7c7cc8c(cc75)C5CC8c7ccccc75)C5CC6c6cc7c(cc65)C5CC7c6ccccc65)nn4)cc3)cc2)c(C)c1N=Nc1ccc(C#Cc2ccc(-c3cn(CCOP(=O)(O)Oc4c5c(c(OP(=O)(O)O)c6c4C4CC6c6cc7c(cc64)C4CC7c6ccccc64)C4CC5c5cc6c(cc54)C4CC6c5ccccc54)nn3)cc2)cc1 [TWAAP4]	nM	4900
Cc1nn(Cc2cn(CCOP(=O)(O)Oc3c4c(c(OP(=O)(O)O)c5c3C3CC5c5cc6c(cc53)C3CC6c5ccccc53)C3CC4c4cc5c(cc43)C3CC5c4ccccc43)nn2)c(C)c1N=Nc1ccc(-c2cn(CCOP(=O)(O)Oc3c4c(c(OP(=O)(O)O)c5c3C3CC5c5cc6c(cc53)C3CC6c5ccccc53)C3CC4c4cc5c(cc43)C3CC5c4ccccc43)nn2)cc1 [TWAAP2]	nM	300

###

Let's look at some compounds and their measured IC50.
Target: UniProtKB Q9H6P5
Assay: Recombinant cleavage assay with GST-MLL2700–2850-GFP-His substrate
Type: biochemical
Conditions: E isomer; ligand conc. 10 - 100 µM; 200 nM Taspase 1, 5 µM substrate; n = 3; read-out: IC50 TW (recombinant cleavage, full-length protein)
Procedure: The recombinant cleavage assay employing the recombinant fusion protein GST-MLL2700–2850-GFP-His, which contains the CS2 cleavage site of the Mixed-lineage leukemia (MLL) protein as a substrate for Taspase 1, was performed as described.[9,10] […] Fig. 7 Switchable tweezer constructs interfere with Taspase 1 proteolytic activity. […] Inhibition of proteolysis was evaluated by the relative amount of uncleaved substrate. […]

Smiles structure	IC50, µM
Cc1nn(-c2ccc(C#Cc3ccc(-c4cn(CCOP(=O)(O)Oc5c6c(c(OP(=O)(O)O)c7c5C5CC7c7cc8c(cc75)C5CC8c7ccccc75)C5CC6c6cc7c(cc65)C5CC7c6ccccc65)nn4)cc3)cc2)c(C)c1N=Nc1ccc(C#Cc2ccc(-c3cn(CCOP(=O)(O)Oc4c5c(c(OP(=O)(O)O)c6c4C4CC6c6cc7c(cc64)C4CC7c6ccccc64)C4CC5c5cc6c(cc54)C4CC6c5ccccc54)nn3)cc2)cc1	24.7
O=P(O)(O)Oc1c2c(c(OP(=O)(O)OCCn3cc(COCc4ccc(N=Nc5ccc(COCc6cn(CCOP(=O)(O)Oc7c8c(c(OP(=O)(O)O)c9c7C7CC9c9cc%10c(cc97)C7CC%10c9ccccc97)C7CC8c8cc9c(cc87)C7CC9c8ccccc87)nn6)cc5)cc4)nn3)c3c1C1CC3c3cc4c(cc31)C1CC4c3ccccc31)C1CC2c2cc3c(cc21)C1CC3c2ccccc21	22.3
Cc1nn(-c2ccc(-c3cn(CCOP(=O)(O)Oc4c5c(c(OP(=O)(O)O)c6c4C4CC6c6cc7c(cc64)C4CC7c6ccccc64)C4CC5c5cc6c(cc54)C4CC6c5ccccc54)nn3)cc2)c(C)c1N=Nc1ccc(-c2ccc(-c3cn(CCOP(=O)(O)Oc4c5c(c(OP(=O)(O)O)c6c4C4CC6c6cc7c(cc64)C4CC7c6ccccc64)C4CC5c5cc6c(cc54)C4CC6c5ccccc54)nn3)cc2)cc1	49.4
